measured_quantity: melting point (°C)

[[record]]
substance_smiles = "FC(F)(F)c1ccc(-n2nccc2-c2ccc3ncn(-c4ccc(Cl)cc4)c3c2)cc1"
observed_measurement = 198

[[record]]
substance_smiles = "Fc1ccc(-n2cnc3ccc(-c4ccnn4-c4ccccc4)cc32)cc1"
observed_measurement = 194

[[record]]
substance_smiles = "Fc1ccc(-n2nccc2-c2ccc3ncn(-c4ccncc4)c3c2)cc1"
observed_measurement = 199

